Target: EP2 (Homo sapiens, UniProt P43116)
Sequence (P43116 whole entry): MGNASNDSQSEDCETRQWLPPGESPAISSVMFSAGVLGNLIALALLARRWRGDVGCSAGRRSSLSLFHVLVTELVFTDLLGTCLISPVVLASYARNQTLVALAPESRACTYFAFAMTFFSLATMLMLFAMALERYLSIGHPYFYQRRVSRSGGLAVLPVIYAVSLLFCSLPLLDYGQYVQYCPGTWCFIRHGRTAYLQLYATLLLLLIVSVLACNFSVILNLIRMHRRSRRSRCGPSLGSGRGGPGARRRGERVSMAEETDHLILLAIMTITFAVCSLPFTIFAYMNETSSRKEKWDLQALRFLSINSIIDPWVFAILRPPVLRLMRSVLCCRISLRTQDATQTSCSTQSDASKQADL
Assay: cAMP assay, EP2
Details: HEK-EBNA cells expressing EP2
# key: entry, value: EC50
Reply numerically in nM, unit not repeated.

compound | EC50 / nM
O=C(O)c1ccc(CCC[C@@H]2[C@@H](CCc3cc(F)cc(F)c3)[C@H](O)C[C@H]2Cl)s1 [11d] | 0.1
Cc1cc(C)cc(CC[C@@H]2[C@@H](CCCc3ccc(C(=O)O)s3)[C@H](Cl)C[C@H]2O)c1 [11e] | 0.4
O=C(O)c1ccc(CCC[C@@H]2[C@@H](CCc3cc(Cl)nc(Cl)c3)[C@H](O)C[C@H]2Cl)s1 [11b] | 0.05
OCc1ccc(CCC[C@@H]2[C@@H](CCc3cc(Cl)cc(Cl)c3)[C@H](O)C[C@H]2Cl)s1 [compound 13] | 284
O=C(O)c1ccc(CCC[C@@H]2[C@@H](CCc3cc(Cl)cc(CO)c3)[C@H](O)C[C@H]2Cl)s1 [11c] | 0.08
O=C(O)c1ccc(CCC[C@@H]2[C@@H](CCc3cc(Cl)cc(Cl)c3)[C@@H](O)C[C@H]2Cl)s1 [compound 17] | 4

Ask | Return EC50 for the following compound: O=C(O)c1ccc(CCC[C@@H]2[C@@H](CCc3cc(Cl)cc(Cl)c3)[C@H](O)C[C@H]2Cl)s1 [11a]
Reply | 0.09

Ask | Return EC50 for the following compound: O=C(O)CCCCCC[C@@H]1[C@@H](CCc2cc(Cl)cc(Cl)c2)[C@H](O)C[C@H]1Cl [compound 6]
Reply | 0.8

* * *

Hi! I'm sharing some Ki results obtained with EP2 (Homo sapiens).
Answer format reminder: number followed by unit.

These recorded examples may help you get a feel for the data.
compound | result
O=C(O)c1ccc(CCC[C@@H]2[C@@H](CCc3cc(Cl)nc(Cl)c3)[C@H](O)C[C@H]2Cl)s1 [11b] | 1 nM
O=C(O)c1ccc(CCC[C@@H]2[C@@H](CCc3cc(F)cc(F)c3)[C@H](O)C[C@H]2Cl)s1 [11d] | 2 nM
Cc1cc(C)cc(CC[C@@H]2[C@@H](CCCc3ccc(C(=O)O)s3)[C@H](Cl)C[C@H]2O)c1 [11e] | 3 nM
O=C(O)c1ccc(CCC[C@@H]2[C@@H](CCc3cc(Cl)cc(CO)c3)[C@H](O)C[C@H]2Cl)s1 [11c] | 1 nM

Ask | Answer with Ki of O=C(O)c1ccc(CCC[C@@H]2[C@@H](CCc3cc(Cl)cc(Cl)c3)[C@H](O)C[C@H]2Cl)s1 [11a] measured for EP2 (Homo sapiens).
Reply | 0.2 nM

* * *

# key: entry, value: EC50
Molecular target: hEP2/Gqs5 (Homo sapiens, UniProt P43116)
Sequence (P43116 whole entry): as above
Assay: FLIPR calcium signal, EP2
Conditions: HEK-293(EBNA) cells
Answer format reminder: number followed by unit.

These recorded examples may help you get a feel for the data.
molecule | EC50
O=C(O)CCCCCC[C@@H]1[C@@H](CCc2cc(Cl)cc(Cl)c2)[C@H](O)C[C@H]1Cl | 3270 nM
O=C(O)c1ccc(CCC[C@@H]2[C@@H](CCc3cc(Cl)nc(Cl)c3)[C@H](O)C[C@H]2Cl)s1 [11b] | 13 nM
Cc1cc(C)cc(CC[C@@H]2[C@@H](CCCc3ccc(C(=O)O)s3)[C@H](Cl)C[C@H]2O)c1 [11e] | 287 nM
O=C(O)c1ccc(CCC[C@@H]2[C@@H](CCc3cc(F)cc(F)c3)[C@H](O)C[C@H]2Cl)s1 [11d] | 10 nM
O=C(O)c1ccc(CCC[C@@H]2[C@@H](CCc3cc(Cl)cc(CO)c3)[C@H](O)C[C@H]2Cl)s1 [11c] | 86 nM
OCc1ccc(CCC[C@@H]2[C@@H](CCc3cc(Cl)cc(Cl)c3)[C@H](O)C[C@H]2Cl)s1 | 10200 nM
O=C(O)c1ccc(CCC[C@@H]2[C@@H](CCc3cc(Cl)cc(Cl)c3)[C@@H](O)C[C@H]2Cl)s1 | 501 nM

Next item in the queue.
Ask | Answer with EC50 of O=C(O)c1ccc(CCC[C@@H]2[C@@H](CCc3cc(Cl)cc(Cl)c3)[C@H](O)C[C@H]2Cl)s1 [11a] measured for hEP2/Gqs5 (Homo sapiens, UniProt P43116).
Reply | 18 nM
